- measurement_protocol: Chromatographic hydrophobicity index, log D of the compound at pH 7.4 by HPLC analysis
- Format: physicochemical
- conditions_used: buffer
Record form. Attribute: CHI. Fill in for each entry.

Qu. Which CHI value is on record for `Cc1ncsc1-c1ccc(CNC(=O)[C@@H]2C[C@@H](O)CN2C(=O)[C@@H](NC(=O)COCCCOCC(F)(F)C(F)(F)COc2ccc(N3C(=S)N(c4ccc(C#N)c(C(F)(F)F)c4)C(=O)C3(C)C)cc2)C(C)(C)C)cc1` ?
Ans. 6.1

Qu. Which CHI value is on record for `Cc1ncsc1-c1ccc(CNC(=O)[C@@H]2C[C@@H](O)CN2C(=O)[C@@H](NC(=O)COCCCOCCCCOc2ccc(N3C(=S)N(c4ccc(C#N)c(C(F)(F)F)c4)C(=O)C3(C)C)cc2)C(C)(C)C)cc1` ?
Ans. 6

Qu. Which CHI value is on record for `Cc1ncsc1-c1ccc(CNC(=O)[C@@H]2C[C@@H](O)CN2C(=O)[C@@H](NC(=O)COCC(F)(F)COc2ccc(-c3ccc(N4C(=S)N(c5ccc(C#N)c(C(F)(F)F)c5)C(=O)C4(C)C)cc3)cc2)C(C)(C)C)cc1` ?
Ans. 6.1
